target: HIV-1 protease (Human immunodeficiency virus type 1 group M subtype B); construct: made in house; host or cells: E. coli BL21 (dE3)pLysS, pET30a vector; assay: HIV-1 Protease Inhibition Assay; type: biochemical; settings: fluorogenic substrate assay
measurement type: IC50 (nM)

COc1ccc(S(=O)(=O)N(CC(C)C)C[C@H](O)[C@H](Cc2ccc(OCc3ccccc3)cc2)NC(=O)OC(C)(C)C)cc1 [Compound 209]
30
CC(C)CN(C[C@@H](O)[C@H](Cc1ccccc1)NC(=O)OC1CO[C@H]2OCC[C@@H]12)C1CC2(CCCC2)NC1=O (stereo partly drawn) [Compound 270]
6.4
CC(C)CN(C[C@@H](O)[C@H](Cc1ccccc1)NC(=O)OC1CC2CCO[C@@H]2C1)S(=O)(=O)c1cncc([N+](=O)[O-])c1 (stereo partly drawn) [Compound 167]
4.5
COc1ccc(S(=O)(=O)N(CC(C)C)CC(O)C(Cc2ccc(OCc3ccccc3)cc2)NC(=O)OC(C)(C)C)cc1 (stereo not drawn) [Compound 210]
13
CC(C)CN(C[C@@H](O)[C@H](Cc1ccccc1)NC(=O)O[C@H]1CCOC1)S(=O)(=O)c1ccc(Cl)c(O)c1 [Compound 153]
3.6
CC(C)CN(C[C@@H](O)[C@H](Cc1ccccc1)NC(=O)OC1CO[C@H]2OCCC12)S(=O)(=O)c1ccc(CN)cc1 (stereo partly drawn) [Compound 118]
2.7
